Source: the supplement of paper PMC11061612

- Test system: RPMI-6666 (Non-Cancerous)
- Assay: combination Emax (second highest fraction inhibited in the dose matrix, 72 h); higher = more inhibition; extreme values may be limits of the assay
Parameter: combination Emax
Answers are plain numbers.

Solved cases below.
Compound	Result Value
CCc1c2c(nc3ccc(O)cc13)-c1cc3c(c(=O)n1C2)COC(=O)[C@]3(O)CC [SN-38] + CN(C)CCCOc1ccc(-c2ccc3ncc4c(c3c2)n(C2CCOCC2)c(=O)n4C)cn1 [AZD0156] (first compound max 0.3 µM, 7x7, partner max 1 µM)	0.947
Cc1nc(Nc2ncc(C(=O)Nc3c(C)cccc3Cl)s2)cc(N2CCN(CCO)CC2)n1 [Dasatinib] + CC(=O)Nc1cccc(-n2c(=O)n(C3CC3)c(=O)c3c(Nc4ccc(I)cc4F)n(C)c(=O)c(C)c32)c1 [Trametinib] (first compound max 2 µM, 7x7, partner max 1 µM)	0.686

Sample Cc1c2c(nn1C)CSCc1cc(n(C)n1)CSc1cc(c3ccccc3c1)OCCCc1c(C(=O)O)n(C)c3c-2c(Cl)ccc13 [AZD5991] + CC1(C)CCC(CN2CCN(c3ccc(C(=O)NS(=O)(=O)c4ccc(NCC5CCOCC5)c([N+](=O)[O-])c4)c(Oc4cnc5[nH]ccc5c4)c3)CC2)=C(c2ccc(Cl)cc2)C1 [Venetoclax] (first compound max 1 µM, 7x7, partner max 1 µM) ; combination Emax observed: 0.911
